experiment: physchem
property: pKa
Reply with just the number.

Would you kindly share the measured pKa for Cn1ccnc1 [mim, 1-methylimidazole, reference compound] ?
7.14

###

Tested on: S. aureus 272123 (MRSA)
Test: Antibacterial assay, MIC in 96-well plates at different pH
Type: cell-based
Settings: pH 5, after one day, read-out: MIC
Description: The antibacterial effect was studied in two Gram-positive and in two Gram-negative strains. The Gram-positive S. aureus ATCC 25923 (ATCC, Manassas, VA, USA) is a methicillin-susceptible reference bacterial strain, while S. aureus 272123 is a clinical isolate and resistant to methicillin and ofloxacin (MRSA), which was given by Prof. […] The minimum inhibitory concentrations (MICs) of the compounds were determined in 96-well plates based on the Clinical and Laboratory Standard Institute guidelines. […]
property: MIC (µM)
Just the number in µM, nothing appended.

Would you kindly share the measured MIC for Cc1c(C)c(C)[c-](C)c1C.Cn1ccnc1.[O-]c1cccc2cccnc12.[Rh+3] [[RhCp*(8HQH−1)(mim)]^+] ?
50

Would you kindly share the measured MIC for Cc1c(C)c(C)[c-](C)c1C.[Cl][Rh+][O]c1cccc2cccnc12 [[RhCp*(8HQH−1)Cl]] ?
50

Would you kindly share the measured MIC for Cc1c(C)c(C)[c-](C)c1C.Clc1ccc(COC(Cn2ccnc2)c2ccc(Cl)cc2Cl)cc1.[Cl-].[Rh+2][O]c1cccc2cccnc12 (racemic) [[RhCp*(8HQH−1)Cl] +econ] ?
12.5

###

I'd appreciate it if you could supply Formation constant logK of mixed-ligand complex values for the items below.
experiment: Formation constants of mixed-ligand half-sandwich complexes (UV-vis and 1H NMR); assay type: physicochemical; conditions: aqua complex + monodentate ligand; I = 0.10 M (KCl); t = 25.0 °C; UV-vis and 1H NMR
Reply with just the number.

Would you kindly share the measured Formation constant logK of mixed-ligand complex for Cc1ccc(C(C)C)cc1.NCCN.[Ru+2].c1ccc2[nH]cnc2c1 [[RuCym(en)(H2O)]2+ + bim] ?
3.5

Would you kindly share the measured Formation constant logK of mixed-ligand complex for Cc1c(C)c(C)[c-](C)c1C.[Cl-].[Rh+2][O]c1cccc2cccnc12.c1ccncc1 [[RhCp*(8HQH−1)Cl] +Py] ?
3.0

Would you kindly share the measured Formation constant logK of mixed-ligand complex for Cc1c(C)c(C)[c-](C)c1C.NCCN.[Rh+3].c1ccc2[nH]cnc2c1 [[RhCp*(en)(H2O)]2+ + bim] ?
3.3

Would you kindly share the measured Formation constant logK of mixed-ligand complex for Cc1c(C)c(C)[c-](C)c1C.[Rh+3].c1ccncc1.c1cnc2c(c1)ccc1cccnc12 [[RhCp*(phen)(Py)]^2+] ?
4.1

Would you kindly share the measured Formation constant logK of mixed-ligand complex for Cc1c(C)c(C)[c-](C)c1C.Cn1ccnc1.NCCN.[Rh+3] [[RhCp*(en)(mim)]^2+] ?
4.2

Would you kindly share the measured Formation constant logK of mixed-ligand complex for Cc1c(C)c(C)[c-](C)c1C.[Rh+2][O]c1cccc2cccnc12.c1ccc2[nH]cnc2c1 [[RhCp*(8HQH-1)(H2O)]+ + bim] ?
3.4

Would you kindly share the measured Formation constant logK of mixed-ligand complex for Cc1c(C)c(C)[c-](C)c1C.Cn1ccnc1.[O-]c1cccc2cccnc12.[Rh+3] [[RhCp*(8HQH−1)(mim)]^+] ?
4.7

Would you kindly share the measured Formation constant logK of mixed-ligand complex for Cc1ccc(C(C)C)cc1.[Ru+][O]c1cccc2cccnc12.c1ccncc1 [[RuCym(8HQH-1)(H2O)]+ + Py] ?
1.6

Would you kindly share the measured Formation constant logK of mixed-ligand complex for Cc1c(C)c(C)[c-](C)c1C.Cn1ccnc1.[Rh+3].c1cnc2c(c1)ccc1cccnc12 [[RhCp*(phen)(mim)]^2+] ?
5.5

Would you kindly share the measured Formation constant logK of mixed-ligand complex for Cc1c(C)c(C)[c-](C)c1C.[Rh+3].c1ccc2[nH]cnc2c1.c1cnc2c(c1)ccc1cccnc12 [[RhCp*(phen)(bim)]^2+] ?
4.9

Would you kindly share the measured Formation constant logK of mixed-ligand complex for Cc1ccc(C(C)C)cc1.[Ru+][O]c1cccc2cccnc12.c1ccc2[nH]cnc2c1 [[RuCym(8HQH-1)(H2O)]+ + bim] ?
2.9
